system: SK-MEL-5 melanoma; assay: NCI-60 one-dose screen, 48 h (100 = growth as untreated, 0 = no growth, -100 = all killed); settings: 10 µM unless noted
This is part of a sample that, as a whole, favours compounds with a hit. Of some 83,000 tested, about 20% had one in any assay.
MEASUREMENT LABEL: growth (%)
One number for each entry, in %.

COc1cccc(/C=C/c2c(C(=O)O)cccc2[N+](=O)[O-])c1OC
106

Record growth per entry; entries follow.
1. CC(=O)OCC1OC(OCC2OC(OC(C)=O)C(OC(C)=O)C(OC(C)=O)C2OC(C)=O)C(OC(C)=O)C(OC(C)=O)C1OC(C)=O (centres undefined)
2. CCN(C(=O)c1cc2ccccc2[nH]1)[C@H]1CCC[C@@H](NCc2ccc(OC)cc2)C1
3. CCCCCCCCCCCCCCCCCCOc1cccc(CCOP(=O)(O)OCC[N+](C)(C)C)c1

[94.2, 91.2, 91.1]

For each listed entry, give its growth.
1. Cc1ccc(Nc2ncnc3c2sc2ncccc23)cc1
2. O=C(CNc1ccc(Cl)cc1)Nc1ccc(-c2nc3ccccc3s2)cc1
3. COc1cc2c(cc1OCCCCn1c(-c3cc(=O)c4ccccc4o3)nc3ccccc31)N=C[C@@H]1CCCN1C2=O

1. 97
2. 25
3. 93.6

Provide growth values for the following items, in order.
1. Cc1cc(C)c(NC(=O)c2sc3nc4c(cc3c2N)CN(Cc2ccccc2)CC4)c(C)c1
2. N#Cc1c(NC(=O)c2ccc([N+](=O)[O-])o2)[n+]([O-])c2cc(F)c(F)cc2[n+]1[O-]

1: 26.1; 2: 79.6
